Tested on: IGROV1 ovarian
Assay: NCI-60 one-dose screen, 48 h
Conditions: 10 µM unless noted
Compounds without any hit were thinned out: in the full panel of roughly 83,000, 20% have a hit. Activity calls are given as the source filed them. Rule for the calls: active = growth percent below 10; inactive = the rest.
Outcome codes: active, inactive

>>> qualitativelabel("CCCCCCCCCCCCC1CCCC(C)C1 (centres undefined)")
"inactive"
>>> qualitativelabel("O=c1ncc(-c2ccc(C(F)(F)F)cc2)c(NC2CCCCCC2)[nH]1")
"inactive"
>>> qualitativelabel("C=C1CCC2C(C)(COC(=O)CC)C(OC(=O)CC)CCC2(C)C1C/C=C1/C(=O)OCC1OC(=O)CC (centres undefined)")
"active"
>>> qualitativelabel("COc1ccc2nc(-c3ccc(Cl)cc3)cc(-c3nnc(SCC(=O)Nc4ccc(C(C)=O)cc4)n3-c3ccccc3)c2c1")
"inactive"
>>> qualitativelabel("O=C(/C=C/c1ccc(C(F)(F)F)cc1)c1ccc(Nc2nc(NCCO)nc(NCCO)n2)cc1")
"inactive"
>>> qualitativelabel("COc1cc(/C=C/c2cc(/C=C/c3ccc(O)c(OC)c3)n(C(=O)Cc3ccccc3)n2)ccc1O")
"inactive"
>>> qualitativelabel("c1ccc2nc(N/N=C3\\CCCCC3C3CCCCC3)ccc2c1 (centres undefined)")
"inactive"
>>> qualitativelabel("C(#Cc1ccccc1C#Cc1ccccn1)c1ccc(OCCCCCCOc2ccc(C#Cc3ccccc3C#Cc3ccccn3)cc2)cc1")
"active"
>>> qualitativelabel("[N-]=[N+]=NCc1ncc(-c2ccc(C(F)(F)F)cc2)c(NC2CCCCCC2)n1")
"inactive"

====

System: M14 melanoma
Test: NCI-60 one-dose screen, 48 h (100 = growth as untreated, 0 = no growth, -100 = all killed)
Settings: 10 µM unless noted
The panel holds about 83,000 compounds, 20% with a hit somewhere; the sample as a whole holds those more often. Calls of active or inactive are those of the source. Rule for the calls: active = growth percent below 10; inactive = the rest.
Each entry below carries its recorded growth.
reportedMetric: growth

>>> result("Cc1cnc2nc(-c3ccc(N(C)C)cc3)cn2c1")
"100% (inactive)"
>>> result("COc1ccc(C2=NN(C(C)=O)C(c3cccc(Nc4ccnc5cc(Cl)ccc45)c3)C2)cc1 (stereo not given)")
"40.2% (inactive)"
>>> result("COc1cc(NC(C)CCCN)c2nc(C)ccc2c1Oc1ccc(F)cc1 (stereo not given)")
"62.3% (inactive)"
>>> result("O=C(O)CNC(=O)C1(N2C(=O)c3ccccc3C2=O)CCCC1")
"105% (inactive)"
>>> result("Cc1cc(C)cc(S(=O)(=O)n2ccc(-c3ccc4c(c3)CCC(C)(C)O4)n2)c1")
"82.7% (inactive)"

====

Tested on: HCC-2998 colon
Assay: NCI-60 one-dose screen, 48 h
Conditions: 10 µM unless noted
About 83,000 compounds went through this panel and 20% of them were active in at least one assay; those are over-represented in the sample as a whole. The source made the active and inactive calls. The calls were made as follows: active = growth percent below 10; inactive = the rest.
Outcome codes: class 1 (active), class 0 (inactive)

>>> qualitativelabel("CN1CCC[C@@H]1CCO[C@](C)(c1ccccc1)c1ccc(Cl)cc1")
"class 0"
>>> qualitativelabel("CNCCCn1c2c(c3ccc(F)cc3c1=O)C(=O)c1cc(OC)cnc1-2")
"class 1"
>>> qualitativelabel("O=C1/C=C/[C@@H](O)[C@@H]2C[C@@H](O)C[C@H]2/C=C/CCC[C@H](CO)O1")
"class 1"
>>> qualitativelabel("CNNc1ncnc2c1cnn2-c1ccc(S(N)(=O)=O)cc1")
"class 0"
>>> qualitativelabel("COc1ccc2c3c(ccc2c1)C(=O)/C(=C\\O)CC3")
"class 0"
>>> qualitativelabel("COc1cc(/C=C/C(=O)CC(=O)/C=C/c2ccc(OC(=O)C3C4CC5CC(C4)CC3C5)c(OC)c2)ccc1OC(=O)C1C2CC3CC(C2)CC1C3 (stereo not given)")
"class 0"
>>> qualitativelabel("COc1ccc(C2CC(c3ccc4c(c3)OCO4)=NN2C=O)cc1 (stereo not given)")
"class 0"
>>> qualitativelabel("CC1C(=O)NC2=Nc3ccccc3C(=O)NN21 (stereo not given)")
"class 0"
>>> qualitativelabel("O=C1C(=O)/C(=C/c2ccccc2)CCCCCC/C1=C/c1ccccc1")
"class 1"
>>> qualitativelabel("CCCCNCCCN(CCCC)CCCNCCCC")
"class 0"

====

Tested on: UO-31 renal
Assay: NCI-60 one-dose screen, 48 h
Settings: 10 µM unless noted
Compounds without any hit were thinned out: in the full panel of roughly 83,000, 20% have a hit. Active and inactive are the calls of the source. Rule for the calls: active = growth percent below 10; inactive = the rest.
Outcome codes: active, inactive

>>> qualitativelabel("O=C1NC(=O)/C(=C/c2ccc(Cl)cc2Cl)N1")
"inactive"
>>> qualitativelabel("Cc1ccc(C(NC(=O)c2ccccc2)c2ccc3cccnc3c2O)cc1 (stereo unspecified)")
"active"
>>> qualitativelabel("COC(=O)C1(NC(=O)CNC(=O)OCc2ccccc2)CCCC1")
"inactive"
>>> qualitativelabel("N#CC(C#N)C(C#N)C#N")
"inactive"
>>> qualitativelabel("CCSc1nc(-c2ccc(F)cc2)c(C#N)c(=O)[nH]1")
"inactive"
>>> qualitativelabel("Nc1ccc2c(c1)C(=O)c1cc(Cl)c(Cl)cc1-2")
"inactive"
>>> qualitativelabel("Cc1ccc(/C=C/C(=O)c2ccc(F)cc2)s1")
"inactive"
>>> qualitativelabel("Cc1nn(-c2ccccc2)cc1/C=C1\\SC(N2CCCCC2)=NC1=O")
"inactive"
>>> qualitativelabel("CN1CCC[C@@H]1CCO[C@](C)(c1ccccc1)c1ccc(Cl)cc1")
"inactive"
>>> qualitativelabel("Cn1c(=O)c2[nH]c(=S)n(Cc3ccccc3)c2n(C)c1=O")
"inactive"
>>> qualitativelabel("COc1ccc(-n2cnc3cc(C(=O)N4CCCCC4)ccc32)cc1")
"inactive"
>>> qualitativelabel("c1ccc(-c2n(Cc3ccc4ccccc4c3)cc[n+]2Cc2ccc3ccccc3c2)cc1")
"active"
>>> qualitativelabel("O=C(N/N=C/c1cccc([N+](=O)[O-])c1)c1ccc(Br)o1")
"active"
>>> qualitativelabel("C[C@@H]1[C@H]2[C@H](C=C3[C@@H]4CC[C@H]5Cc6nc7c(nc6C[C@]5(C)[C@H]4C[C@@H](O)[C@@]32C)C[C@@H]2CC[C@H]3C4=C[C@@H]5O[C@@]6(CC[C@](C)(CO)O6)[C@@H](C)[C@@]5(O)[C@@]4(C)[C@H](O)C[C@@H]3[C@@]2(C)C7)O[C@]12CCC(C)(C)O2")
"active"
>>> qualitativelabel("O=C(c1ccc(N2CCOCC2)cc1[N+](=O)[O-])N1CCOCC1")
"inactive"
>>> qualitativelabel("CCOC(=O)OCC(=O)[C@@]1(O)CC[C@H]2[C@@H]3CCC4=CC(=O)CC[C@]4(C)[C@H]3[C@@H](O)C[C@@]21C")
"inactive"
>>> qualitativelabel("COc1cnc2c(c1)C(=O)c1c-2n(CCCNC(C)C)c(=O)c2cc(F)ccc12")
"active"
>>> qualitativelabel("O=c1ncc(-c2ccc(C(F)(F)F)cc2)c(NC2CCCCCC2)[nH]1")
"inactive"
>>> qualitativelabel("CN(C)c1ncnc2c1ncn2C1CCCCO1 (stereo unspecified)")
"inactive"
>>> qualitativelabel("C[C@H](C(=O)N[C@@H](Cc1ccc(-c2ccccc2)cc1)C(=O)NC1CC(C)(C)N(C)C(C)(C)C1)c1ccc(-c2ccccc2)c(F)c1")
"active"
>>> qualitativelabel("Nc1ccc(Oc2c(F)c(F)c(Oc3ccc(N)cc3)c(F)c2F)cc1")
"inactive"
>>> qualitativelabel("COc1cc(/C=N/OC(=O)Nc2ccccc2)cc(OC)c1OC")
"inactive"
>>> qualitativelabel("Cc1ccccc1NC(=O)N/C(N)=N/c1nc2ccccc2s1")
"inactive"
>>> qualitativelabel("COP(=O)(OC)C(c1ccccc1)(c1ccccc1)c1ccccc1")
"inactive"
>>> qualitativelabel("CC(C)Sc1nc(Cl)c(C#N)c(-c2ccc(F)cc2)n1")
"inactive"
>>> qualitativelabel("CC(=O)OCC(=O)[C@@]1(O)CC[C@H]2[C@@H]3CCC4=CC(=O)CC[C@]4(C)[C@@]3(F)[C@@H](O)C[C@@]21C")
"inactive"
>>> qualitativelabel("C/C=C(/C(=C/C)c1ccc(O)cc1)c1ccc(O)cc1")
"inactive"
>>> qualitativelabel("CCSc1nc(-c2cccs2)n2nc(-c3ccco3)cc2n1")
"inactive"
>>> qualitativelabel("BrC1CC(Br)c2c1c1c(c3c2C(Br)CC3Br)C(Br)CC1Br (stereo unspecified)")
"inactive"
>>> qualitativelabel("Oc1c(Cl)cc(Cl)c(Cl)c1Cc1c(O)c(Cl)cc(Cl)c1Cl")
"active"
>>> qualitativelabel("C[C@]12CCC(=O)C=C1CCC1C2[C@@H](O)C[C@@]2(C)C1CC[C@]2(O)C(=O)COC(=O)CCC(=O)O (stereo partly specified)")
"inactive"
>>> qualitativelabel("C=C1CC[C@@H]2[C@](C)(COC(C)=O)[C@H](OC(C)=O)CC[C@@]2(C)[C@@H]1CC(NCc1ccccc1)C1=CCOC1=O (stereo partly specified)")
"inactive"
>>> qualitativelabel("N[C@H](CS)C(=O)O")
"inactive"
>>> qualitativelabel("C[N+]1(C)C2CC[C@@H]1CC(OC(=O)C(O)c1ccccc1)C2 (stereo partly specified)")
"inactive"
>>> qualitativelabel("CC12CCC3C(=CCc4cc(O)ccc43)C1CCC2=O (stereo unspecified)")
"inactive"
>>> qualitativelabel("CCCCCCCCCCNCCSS(=O)(=O)O")
"inactive"
>>> qualitativelabel("O=C(CNC(=O)c1cccc2ccccc12)Nc1ccccc1Cc1ccccc1")
"inactive"
>>> qualitativelabel("O=C(Nc1nc(-c2ccc(Cl)cc2)cs1)c1cc(-c2ccc(Br)cc2)nc2ccc(Cl)cc12")
"inactive"
>>> qualitativelabel("O=C1c2cccc(NCCN=Cc3ccccc3O)c2C(=O)c2c(NCCN=Cc3ccccc3O)cccc21")
"active"
>>> qualitativelabel("Nc1nc2c(nnn2Cc2ccc(Cl)c(Cl)c2)c(=O)[nH]1")
"inactive"
>>> qualitativelabel("CC1C(C)N(C(=O)CCl)c2ccccc2N1C(=O)CCl (stereo unspecified)")
"active"
